Would you mind telling me the reported pIC50 of each entry?
# assay-system: CDK4/cyclin D3 (Homo sapiens, UniProt P11802)
# Construct: purchased Carna Biosciences, Inc. QS S Assist CDK4/Cyclin D3_FP Kit
# Sequence (P11802 whole entry): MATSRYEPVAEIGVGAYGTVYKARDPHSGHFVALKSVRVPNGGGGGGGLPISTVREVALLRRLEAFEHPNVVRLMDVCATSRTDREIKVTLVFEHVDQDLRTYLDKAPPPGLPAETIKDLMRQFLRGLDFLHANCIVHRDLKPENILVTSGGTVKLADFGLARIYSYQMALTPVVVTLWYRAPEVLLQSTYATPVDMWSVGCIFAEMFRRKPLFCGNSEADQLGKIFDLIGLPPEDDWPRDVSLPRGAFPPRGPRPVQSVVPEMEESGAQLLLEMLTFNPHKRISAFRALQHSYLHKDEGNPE
# Sequence (P30281 whole entry partner): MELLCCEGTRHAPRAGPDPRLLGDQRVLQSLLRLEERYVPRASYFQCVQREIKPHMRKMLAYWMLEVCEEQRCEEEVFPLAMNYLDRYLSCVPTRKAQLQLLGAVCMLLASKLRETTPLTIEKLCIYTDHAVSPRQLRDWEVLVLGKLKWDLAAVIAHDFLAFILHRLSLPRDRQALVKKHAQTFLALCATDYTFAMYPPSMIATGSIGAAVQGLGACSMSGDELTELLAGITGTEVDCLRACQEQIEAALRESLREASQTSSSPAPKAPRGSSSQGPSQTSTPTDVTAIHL
# protocol-details: Human CDK4/cyclin D3 inhibitory activity (QS S Assist CDK4/Cyclin D3_FP Kit, IMAP fluorescence polarization)
# Assay type: biochemical
# condition-notes: Human CDK4/cyclin D3 inhibitory activity; read-out: CDK4 Activity symbol
pIC50: −log10 of the molar value.

Completed entries (count: 5):
Reported pIC50, compound CC(C)Nc1nc(C(F)F)cc2cnc(Nc3ccc(N4CCN(C)CC4)cn3)nc12 : ____
> 8.00

For the compound CO[C@H](C)c1cc2cnc(Nc3ccc(N4CCCC(N)C4=O)cn3)nc2c(NC(C)C)n1 (stereo partly drawn) , what pIC50 is on record?
> 8.00

// query pIC50 value for entry CC(O)c1cc2cnc(Nc3ccc(N4CCNCC4)cn3)nc2c(N(C)C2CCCC2)n1 (stereo not drawn)
> 8.00

Fill blank: measured pIC50 of the compound CC(C)Nc1nc([C@@H](C)O)cc2cnc(Nc3ccc(CN4CCOCC4)cn3)nc12 is ____.
> 8.00

What does the data say about its pIC50? Entry: CC(C)Nc1nc([C@@H](C)O)cc2cnc(Nc3ccc(N(C)C(=O)CN)cn3)nc12
> 8.00

Could you tell me pIC50 for each of these compounds? They are listed below.
1. CC(C)Nc1nc([C@@H](C)O)cc2cnc(Nc3ccc(N4CCN[C@H](C)C4=O)cn3)nc12
2. COC(C)c1cc2cnc(Nc3ccc(CN4CCNCC4)cn3)nc2c(Nc2cccc(C#N)c2)n1 (stereo not drawn)

7.00 to 8.00
> 8.00

# return pIC50 for each item in the list
1. CC(=O)N1CCC(c2ccc(Nc3ncc4cc(C(F)F)nc(NC(C)C)c4n3)nc2)CC1
2. CN(C)CCOc1ccc(Nc2ncc3cc(C(F)F)nc(N[C@H]4CC[C@H](C(=O)O)CC4)c3n2)nc1
3. COCC(C)(C)Nc1nc([C@@H](C)O)cc2cnc(Nc3ccc(CN4CCNCC4=O)cn3)nc12
4. CC(C)Nc1nc(C(F)F)c(Cl)c2cnc(Nc3ccc(N4CCNCC4)cn3)nc12
5. CC(=O)Nc1ccc(Nc2ncc3cc(C(F)F)nc(NC(C)C)c3n2)nc1

> 8.00
> 8.00
7.00 to 8.00
> 8.00
7.00 to 8.00

---

Exercise: for every item that follows, state its recorded pIC50.
# assay-system: CDK4/cyclin D3 (Homo sapiens, UniProt P11802)
# Construct: purchased Carna Biosciences, Inc. QS S Assist CDK4/Cyclin D3_FP Kit
# protocol-details: Human CDK4/cyclin D3 inhibitory activity (QS S Assist CDK4/Cyclin D3_FP Kit, IMAP fluorescence polarization)
# Format: biochemical
# condition-notes: Human CDK4/cyclin D3 inhibitory activity; read-out: CDK4 Activity symbol
pIC50: −log10 of the molar value.

As a guide, the following entries are already answered.
What value of pIC50 has been reported for the following compound? CO[C@H](C)c1cc2cnc(Nc3ccc(CN4CCOCC4=O)cn3)nc2c(NC(C)C)n1 [Compound 199]
7.00 to 8.00

# lookup: pIC50 of COC(C)c1cc2cnc(Nc3ccc(CN4CCNCC4)cn3)nc2c(Nc2ccc(F)cc2)n1 (centres unmarked) [Compound 446]
7.00 to 8.00

Fill in: pIC50 of COC(C)c1cc2cnc(Nc3ccc(CN4CCNCC4)cn3)nc2c(NCC(C)(C)C)n1 (centres unmarked) [Compound 418] is ___
> 8.00

Name the reported pIC50 value associated with the compound CO[C@H](C)c1cc2cnc(Nc3ccc(CN4CC[C@@H](F)C4)cn3)nc2c(NC(C)C)n1 [Compound 271]
> 8.00

Given the entry CO[C@H](C)c1cc2cnc(Nc3ccc(N4CCNCC4)nn3)nc2c(N[C@H]2CCOC2)n1 [Compound 306] , report its measured pIC50.
7.00 to 8.00

Fill in: pIC50 of CCC(C)Nc1nc(C(C)OC)cc2cnc(Nc3ccc(CN4CCNCC4)cn3)nc12 (centres unmarked) [Compound 423] is ___
> 8.00

I have this compound here, CC(=O)NCCCc1ccc(Nc2ncc3cc(C(F)F)nc(NC(C)C)c3n2)nc1 [Compound 152] , and I need its recorded pIC50.
> 8.00

Quick one: pIC50 for CO[C@H](C)c1cc2cnc(Nc3ccc(CC(=O)N4CCNCC4)cn3)nc2c(NC(C)C)n1 [Compound 518] ?
> 8.00

Reported pIC50 for CO[C@H](C)c1cc2cnc(Nc3ccc(N4CCCNCC4)nn3)nc2c(NC(C)C)n1 [Compound 495] : what is it?
> 8.00

Entry under review: CNCCOc1ccc(Nc2ncc3cc([C@@H](C)O)nc(NC(C)C)c3n2)nc1 [Compound 529] . Reported pIC50?
> 8.00

List the reported pIC50 of each compound below.
1. CC(C)Nc1nc([C@@H](C)O)cc2cnc(Nc3ccc(CN4CCN(CC(C)(C)O)CC4)cn3)nc12 [Compound 626]
2. CO[C@H](C)c1cc2cnc(Nc3ccc(OC4CCNCC4)cn3)nc2c(NC(C)C)n1 [Compound 289]
3. CO[C@H](C)c1cc2cnc(Nc3ccc(N4C5CCC4CNC5)cn3)nc2c(NC(C)C)n1 [Compound 500]
4. COC(C)c1cc2cnc(Nc3ccc(CN4CCNCC4)cn3)nc2c(NCC2CCCCO2)n1 (centres unmarked) [Compound 398]

> 8.00
> 8.00
> 8.00
> 8.00
